Hey, just so you know, these numbers are from paper PMC3742456.

- testedOn: c-kit receptor (CD117), expressed on BJAB c-kit cells (Mus musculus) (UniProt P05532)
- testMethodNotes: flow cytometry (cell titration, 0-100 nM)
- conditionLabel: apparent Kd on BJAB c-kit cells, background subtracted; Aptamer folded in SELEX buffer (DPBS with Ca/Mg, 5 mM MgCl2, 0.45% glucose, tRNA), 95 C then …; binding in DPBS with Ca/Mg + 0.1% BSA, 1 h on ice; FAM
metric: Kd (µM)
Number in µM, nothing else.

// Kd lookup, key: AGCAGCACAGAGGTCAGATGGCTCAACGCGGGACGGCTCTCCCATTGACCCTATGCGTGCTACCGTGAA [Kit-129] 0.0122
